Recorded IC50 for molecules tested on Coagulation factor XI (Homo sapiens, UniProt P03951), drawn from a number of studies.
Measured Metric: IC50 (µM)

molecule="NC(=O)c1c(F)cc(NC(=O)[C@@H]2CCC3CC(c4c(-n5cnnn5)ccc(Cl)c4F)=CC(=O)N32)cc1F (mixture of isomers)" test_system="Coagulation factor XI (Homo sapiens, UniProt P03951)" units_symbol=µM observed_result=0.024

(a) Nc1c(C(=O)N2CCC[C@@]3(C2)OC(=O)Nc2ccc(Cl)c(F)c23)cnn1C1(C(F)(F)F)CCC1
(b) CC(c1cnc(N2C[C@H]3C[C@H]3[C@H]2C(N)=O)nc1)n1cc(NC(=O)c2cncc(-c3c(C(F)F)ccc(Cl)c3F)n2)cn1 (relative stereo)
Inquiry: Endpoint returns whichever of a and b has the numerically higher IC50. Indicate your choice by writing its label.
Reply text: b
(b: 8.8 µM, a: 0.731 µM)
